This section presents binders with their documented pKd values.
Target: T1, human FcRH5 protein fragment (soluble) (human, UniProt Q96RD9 16-851)
T1 construct: whole entry named; also called soluble human FcRH5; Human FcRH5 (BIACORE analyte)
T1 sequence: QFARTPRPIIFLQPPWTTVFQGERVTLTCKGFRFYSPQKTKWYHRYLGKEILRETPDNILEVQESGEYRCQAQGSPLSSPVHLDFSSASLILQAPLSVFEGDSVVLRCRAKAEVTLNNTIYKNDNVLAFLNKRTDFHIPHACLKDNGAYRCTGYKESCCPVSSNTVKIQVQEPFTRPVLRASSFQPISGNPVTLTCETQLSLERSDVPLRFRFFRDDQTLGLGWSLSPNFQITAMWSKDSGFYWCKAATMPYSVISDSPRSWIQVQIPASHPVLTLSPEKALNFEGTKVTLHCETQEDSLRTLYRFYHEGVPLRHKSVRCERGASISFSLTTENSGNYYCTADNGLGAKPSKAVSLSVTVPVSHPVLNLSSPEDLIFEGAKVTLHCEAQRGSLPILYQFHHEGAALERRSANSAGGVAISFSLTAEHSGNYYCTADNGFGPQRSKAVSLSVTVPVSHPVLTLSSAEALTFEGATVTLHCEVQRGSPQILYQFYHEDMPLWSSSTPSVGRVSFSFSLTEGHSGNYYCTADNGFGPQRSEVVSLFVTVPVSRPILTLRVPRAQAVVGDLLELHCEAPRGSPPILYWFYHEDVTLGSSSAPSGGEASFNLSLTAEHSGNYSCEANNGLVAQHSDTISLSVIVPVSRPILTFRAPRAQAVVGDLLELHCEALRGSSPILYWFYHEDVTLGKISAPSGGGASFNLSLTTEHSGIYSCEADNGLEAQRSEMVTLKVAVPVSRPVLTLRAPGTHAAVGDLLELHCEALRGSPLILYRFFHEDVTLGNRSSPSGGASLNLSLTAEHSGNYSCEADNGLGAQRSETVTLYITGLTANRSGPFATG
Experiment: SPR, hIgG capture, screening
pKd (log units): -log10 of the concentration in mol/L.

binder	pKd
hu1G7.v1 heavy chain M64F with light chain of hu1G7.v1.5 (antibody, V domains shown, human IgG) VH: EVQLVESGPGLVKPSETLSLTCTVSGFSLTRFGVHWVRQPPGKGLEWLGVIWRGGSTDYNAAFFSRLTISKDNSKNQVSLKLSSVTAADTAVYYCSNHYYGSSDYALDNWGQGTLVTVSS VL: DIQMTQSPSSLSASVGDRVTITCKASQDVSNIVVWFQQKPGKSPKLLIYSGYYRYTGVPSRFSGSGSGTDFTLTISSLQPEDFATYYCQQQFQPPYTFGQGTKVEIK	8.85
hu1G7.v1 heavy chain W52Y with light chain of hu1G7.v1.6 (antibody, V domains shown, human IgG) VH: EVQLVESGPGLVKPSETLSLTCTVSGFSLTRFGVHWVRQPPGKGLEWLGVIYRGGSTDYNAAFMSRLTISKDNSKNQVSLKLSSVTAADTAVYYCSNHYYGSSDYALDNWGQGTLVTVSS VL: DIQMTQSPSSLSASVGDRVTITCKASQDVSNIVVWFQQKPGKAPKLLIYSGYYRYSGVPSRFSGSGSGTDFTLTISSLQPEDFATYYCQQQYQPPYTFGQGTKVEIK	6.28
hu1G7.v1 heavy chain M64F with light chain of hu1G7.v1.7 (antibody, V domains shown, human IgG) VH: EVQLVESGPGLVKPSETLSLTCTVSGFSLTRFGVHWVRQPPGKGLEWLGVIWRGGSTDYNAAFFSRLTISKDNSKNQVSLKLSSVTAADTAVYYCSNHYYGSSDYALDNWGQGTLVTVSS VL: DIQMTQSPSSLSASVGDRVTITCKASQDVRNLVVWFQQKPGKAPKLLIYSGYYRYTGVPSRFSGSGSGTDFTLTISSLQPEDFATYYCQQHYQPPYTFGQGTKVEIK	8.62
hu1G7.v1 heavy chain W52L with light chain of hu1G7.v1.3 (antibody, V domains shown, human IgG) VH: EVQLVESGPGLVKPSETLSLTCTVSGFSLTRFGVHWVRQPPGKGLEWLGVILRGGSTDYNAAFMSRLTISKDNSKNQVSLKLSSVTAADTAVYYCSNHYYGSSDYALDNWGQGTLVTVSS VL: DIQMTQSPSSLSASVGDRVTITCKASQDVRNIVVWFQQKPGKAPKLLIYSGSYRYSGVPSRFSGSGSGTDFTLTISSLQPEDFATYYCQQQYSPPYTFGQGTKVEIK	6.62
hu1G7.v1 heavy chain M64L with light chain of hu1G7.v1 (antibody, V domains shown, human IgG) VH: EVQLVESGPGLVKPSETLSLTCTVSGFSLTRFGVHWVRQPPGKGLEWLGVIWRGGSTDYNAAFLSRLTISKDNSKNQVSLKLSSVTAADTAVYYCSNHYYGSSDYALDNWGQGTLVTVSS VL: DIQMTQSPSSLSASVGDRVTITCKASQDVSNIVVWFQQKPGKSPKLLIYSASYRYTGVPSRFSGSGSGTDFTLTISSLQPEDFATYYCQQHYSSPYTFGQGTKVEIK	7.57
hu1G7.v1 heavy chain M64F with light chain of hu1G7.v1.3 (antibody, V domains shown, human IgG) VH: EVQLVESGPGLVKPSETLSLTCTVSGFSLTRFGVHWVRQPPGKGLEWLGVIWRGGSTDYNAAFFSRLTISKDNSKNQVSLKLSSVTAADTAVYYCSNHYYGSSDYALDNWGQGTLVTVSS VL: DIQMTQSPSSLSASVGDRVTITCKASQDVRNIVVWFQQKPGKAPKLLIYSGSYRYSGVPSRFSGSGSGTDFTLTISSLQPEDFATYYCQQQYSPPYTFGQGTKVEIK	8.66

Query hu1G7.v1 heavy chain W52H with light chain of hu1G7.v1 (antibody, V domains shown, human IgG) VH: EVQLVESGPGLVKPSETLSLTCTVSGFSLTRFGVHWVRQPPGKGLEWLGVIHRGGSTDYNAAFMSRLTISKDNSKNQVSLKLSSVTAADTAVYYCSNHYYGSSDYALDNWGQGTLVTVSS VL: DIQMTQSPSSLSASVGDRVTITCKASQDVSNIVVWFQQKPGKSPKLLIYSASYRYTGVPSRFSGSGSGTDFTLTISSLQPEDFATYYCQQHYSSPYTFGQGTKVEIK yields pKd of 6.92

Per the record, hu1G7.v1 heavy chain W52F with light chain of hu1G7.v1.5 (antibody, V domains shown, human IgG) VH: EVQLVESGPGLVKPSETLSLTCTVSGFSLTRFGVHWVRQPPGKGLEWLGVIFRGGSTDYNAAFMSRLTISKDNSKNQVSLKLSSVTAADTAVYYCSNHYYGSSDYALDNWGQGTLVTVSS VL: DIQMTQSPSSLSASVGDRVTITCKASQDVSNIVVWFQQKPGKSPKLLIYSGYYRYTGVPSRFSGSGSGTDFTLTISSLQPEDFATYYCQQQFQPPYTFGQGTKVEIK has pKd of 7.32

hu1G7.v1 heavy chain M64I with light chain of hu1G7.v1.5 (antibody, V domains shown, human IgG) VH: EVQLVESGPGLVKPSETLSLTCTVSGFSLTRFGVHWVRQPPGKGLEWLGVIWRGGSTDYNAAFISRLTISKDNSKNQVSLKLSSVTAADTAVYYCSNHYYGSSDYALDNWGQGTLVTVSS VL: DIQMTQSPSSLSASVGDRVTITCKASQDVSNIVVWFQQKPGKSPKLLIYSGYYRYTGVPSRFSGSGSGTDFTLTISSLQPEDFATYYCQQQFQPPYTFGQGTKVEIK has a reported pKd of 8.57
